measure_name: melting point

Req: Recorded melting point for OC1CSC(Oc2ccc(-c3ccoc3)nc2)C(O)C1O (stereo not given) , please?
Resp: 132 °C

Req: Recorded melting point for COc1c(Nc2ncc(Cl)c(Nc3ccccc3S(=O)(=O)N(C)C)n2)ccc2c1CC(N1CCOCC1)CCC2 (stereo not given) , please?
Resp: 92 to 104 °C

Req: Recorded melting point for O=C(NC(CCCl)c1ccccc1Br)c1c(F)cccc1F (stereo not given) , please?
Resp: 183 to 185 °C

Req: Recorded melting point for `O=C(O)c1cccc(N2C(=O)c3ccc([N+](=O)[O-])cc3C2=O)c1` , please?
Resp: 368 to 370 °C

---
Req: Recorded melting point for `CC(C)c1[nH]n(-c2c(Cl)cc(Cl)cc2Cl)c2nc(Cc3ccc(C(=O)O)cc3)nc(=O)c1-2` , please?
Resp: 294 to 295 °C

----------
measure_name: melting point

Req: Recorded melting point for O=C1CNN(c2cc(Cl)c(C(C(=O)O)c3ccc(Cl)cc3)c(Cl)c2)C(=O)N1 (stereo unspecified) , please?
Resp: 194 °C

----------
Each entry below carries its recorded melting point.

Req: Recorded melting point for N#Cc1ccc(-c2ccc(OCC(CN3C(=O)c4ccccc4C3=O)N(O)C=O)cc2)cc1 (configuration not stated) , please?
Resp: 199 to 202 °C

Req: Recorded melting point for CC1(C)CC2(NC(=O)NC2=O)c2cc(Cl)ccc2O1 (configuration not stated) , please?
Resp: 281 to 283 °C

Req: Recorded melting point for CCCn1c(=O)c2[nH]c(C3CCCO3)nc2n(CCC)c1=O (configuration not stated) , please?
Resp: 155 to 158 °C

Req: Recorded melting point for `O=C(O)c1cc2ccc(OCCc3ccccc3)cc2oc1=O` , please?
Resp: 150 to 151 °C

Req: Recorded melting point for `CCOC(=O)Nc1ccccc1NS(=O)(=O)c1ccc(OC)cc1` , please?
Resp: 118 to 119 °C

Req: Recorded melting point for `Nc1cc(C(=O)O)c(Cl)cc1F` , please?
Resp: 153 to 155 °C

Req: Recorded melting point for `CCCCCCCCN(SN(C(=O)NC(=O)c1ccccc1[N+](=O)[O-])c1ccc(Oc2ncc(Br)cn2)c(Cl)c1)C(=O)OC` , please?
Resp: 51 to 54 °C

Req: Recorded melting point for CC(C(=O)O)c1cccc(C(=O)c2cc3cc(C(=O)O)sc3s2)c1 (configuration not stated) , please?
Resp: 244 °C

---
Req: Recorded melting point for `COC(=O)C1=Cc2ccccc2OC1` , please?
Resp: 56 to 57 °C

Req: Recorded melting point for `CCN1C(=O)CC(=O)N(c2ccccc2)c2cc(Cl)ccc21` , please?
Resp: 220 to 222 °C

Req: Recorded melting point for `NC(=O)CCCCCCCCCCC(Cl)(Cl)C(=O)O` , please?
Resp: 93 to 94 °C

----------
Each entry below carries its recorded melting point.

Req: Recorded melting point for CN(C)c1ccc(C2(c3ccc(N(C)C)cc3N(C)C)OC(=O)c3ccccc32)cc1 (configuration not stated) , please?
Resp: 190 to 194 °C

Req: Recorded melting point for `COc1ccc(-c2cc3ccc(OC)cc3s2)cc1` , please?
Resp: 193 to 194 °C

Req: Recorded melting point for CCOc1cc2c(cc1S(N)(=O)=O)C(CNC(=O)N1CC(C)=C(CC)C1=O)CCO2 (configuration not stated) , please?
Resp: 192 °C

Req: Recorded melting point for `CCc1cc2c(O)c(C#N)c(=O)oc2cc1C` , please?
Resp: 224 to 226 °C

Req: Recorded melting point for `COC(=O)c1cc(OC)c(OCCCN)cc1[N+](=O)[O-]` , please?
Resp: 101 to 103 °C

---
Req: Recorded melting point for Cn1nnnc1-c1cn(C)c2cc(S(=O)c3ccccc3)ccc2c1=O (configuration not stated) , please?
Resp: 217 to 220 °C

Req: Recorded melting point for CCOC(=O)C1=C(C)Nc2nc(N3CCOCC3)nc(N3CCOCC3)c2C1c1c(F)c(F)c(F)c(F)c1F (configuration not stated) , please?
Resp: 195 °C

Req: Recorded melting point for `CC(=O)c1ccc(OCCCc2ccccc2)cc1` , please?
Resp: 80 to 81 °C

Req: Recorded melting point for `CSc1ccc(C=CC(=O)c2cccc(Br)c2)cc1` , please?
Resp: 148 °C

Req: Recorded melting point for `CCC(CC)OC(=O)N1CCC(c2nc3cc(-c4ccc(-n5cnnn5)cc4F)ccc3o2)CC1` , please?
Resp: 114 to 117 °C

Req: Recorded melting point for CC(CCC(=O)O)c1ccc(OCc2ccccc2C(=O)O)cc1 (configuration not stated) , please?
Resp: 104 to 106 °C

Req: Recorded melting point for `O=C1CN(SC(Cl)(Cl)Cl)C(=O)N1SC(Cl)(Cl)Cl` , please?
Resp: 142 °C

Req: Recorded melting point for `C=Cc1ccc2nnn(OS(C)(=O)=O)c2c1` , please?
Resp: 129 to 130 °C

Req: Recorded melting point for `CCc1c(-c2cc(C)c(O)c(C)c2)[nH]c2ccc(OC)cc12` , please?
Resp: 176 to 178 °C

Req: Recorded melting point for `CCn1ccc(-c2cccc(-c3ccnc4c(C(=O)c5cccs5)cnn34)c2)n1` , please?
Resp: 61 °C

Req: Recorded melting point for `CC(=O)N(C)C(=O)Oc1cccc2c1OCO2` , please?
Resp: 48 to 50 °C

Req: Recorded melting point for `CC(C)(C)OC(=O)[C@H](Cc1ccc(O)cc1)NC(=O)c1c(F)cccc1F` , please?
Resp: 145 to 148 °C

Req: Recorded melting point for `CN1C(=O)N(C[C@H](CO)[C@@H](CC2CCCC2)C(=O)N2CCCCC2)C(=O)C1(C)C` , please?
Resp: 92 to 95 °C

Req: Recorded melting point for `Cc1cc(N(C)CC(=O)N2CCN(Cc3ccc4c(c3)OCO4)CC2)ccc1Oc1ccc(NC(=O)c2ccc(C(F)(F)F)cc2)cn1` , please?
Resp: 128 to 131 °C

Req: Recorded melting point for `COc1c(/C=C/C(=O)Nc2ccccc2)c(=O)c2ccc(Cl)cc2[nH]c1=O` , please?
Resp: 215 to 217 °C

Req: Recorded melting point for C#CC(C)OS(=O)(=O)c1ccc(C)cc1 (configuration not stated) , please?
Resp: 49 to 51 °C

Req: Recorded melting point for `O=C(O)CCCCN1CCN(C2=Nc3ccccc3Oc3ccc(Cl)cc32)CC1` , please?
Resp: 223 to 226 °C

----------
measure_name: melting point

Req: Recorded melting point for `COC[C@H](O)CNc1ccc2cc(OCc3ccccc3)ccc2c1` , please?
Resp: 105 to 106 °C

Req: Recorded melting point for `FC(F)(F)c1cccc(N2CCN(CC[C@H]3CC[C@H](Nc4ncccn4)CC3)CC2)c1` , please?
Resp: 167 °C

Req: Recorded melting point for `C(=C\c1ncc(-c2cnc(-c3ccccc3)nc2)[nH]1)/c1cccnc1` , please?
Resp: 258 °C

Req: Recorded melting point for Cc1ccc(-c2nc3ccc(C)cn3c2C(O)C(=O)N(C)C)cc1 (stereo not given) , please?
Resp: 175 to 177 °C

Req: Recorded melting point for CCCCCC(CC(=O)Nc1cc(C(N)=O)ccc1C(C)(C)C)c1cccc(OC)c1O (stereo not given) , please?
Resp: 118 to 121 °C

Req: Recorded melting point for `CCCCCCCCCCCCCCCCCCOc1cc(C(=O)O)cc(C(=O)OC)c1` , please?
Resp: 81 to 83 °C

Req: Recorded melting point for `COc1ccc(F)c2c1C[C@@H](NO)CO2` , please?
Resp: 111 to 113 °C

Req: Recorded melting point for `C(CCCN1CCCNC1)CCCN1CCCNC1` , please?
Resp: 52 to 53 °C

Req: Recorded melting point for CCCCC(CC)COc1ccc(C=C2C(=O)C3CCN2CC3)cc1 (stereo not given) , please?
Resp: 37 °C

----------
Each entry below carries its recorded melting point.

Req: Recorded melting point for `Cc1ccc(S(=O)(=O)n2ccc(-c3ccc(F)cc3)c2-c2ccc(S(C)(=O)=O)cc2)cc1` , please?
Resp: 228 to 229 °C

Req: Recorded melting point for `C=CCc1c(O)ccc2oc(C(=O)c3ccc(OC)cc3)c(C)c12` , please?
Resp: 155 to 158 °C

Req: Recorded melting point for `CN(C(=O)c1n[nH]c2c(=O)[nH]c3cc(Cl)ccc3c(=O)c12)c1ccccc1` , please?
Resp: 308 °C

Req: Recorded melting point for `COc1ccc(CN(C)CCCOc2ccc(NC(=O)c3cccc4c(=O)c5cccc(F)c5[nH]c34)c(C)c2)cc1OC` , please?
Resp: 130 °C

Req: Recorded melting point for COC(=O)CCC(NC(=O)Cc1cc(C)c(C(=O)c2ccc(Cl)cc2)n1C)C(=O)OC (stereo not drawn) , please?
Resp: 129 to 130 °C

---
Req: Recorded melting point for COc1ccc2c(c1)Sc1c(cc(OC)c(O)c1Br)N2C(=O)OC(C)OC(=O)C(C)(C)C (stereo not drawn) , please?
Resp: 85 °C

Req: Recorded melting point for `Nc1nc2ccccc2c2c1nc(CCO)n2CC1(O)CCC1` , please?
Resp: 132 to 137 °C

Req: Recorded melting point for `Cn1ncc(/C=C/C(=O)Nc2ccc(Cc3nc4ccccc4o3)cc2)c1-c1ccc(F)cc1` , please?
Resp: 195 to 196 °C
